Origin of measurements: the DeepSol protein solubility set

- ASSAY_SUMMARY: soluble on expression in E. coli; label from the status in PepcDB or PDB records
QUANTITY_KIND: soluble on expression in E. coli

MAHHHHHHMSDVIKLCEAEELKELFIKEYNEYLKLIKNVELYYEKLEINWKKFHLFYQQNKKDPFEYHKEKNKHNKIKKVQNKKKNINIHSDYQSIEKYFKMIQKKEIQNNCHYYKKFDYDKDSFILFTLKKNVNNAVELYININIEKLNKIKNYLLNYINDFCKRQINQIINLIILCEIKLNNLYISQKNHFTNNNIKIKHIHLIKNIIHFNQQFIFEVTKNLIPFFTNFNIFSSPDYFNYQFNYFNNCVEIMGE = not soluble
GMKAADFTYVTVHGDNSRMSRLKAQYTMLFFYDPDCSNCRKFEKLFAEIPAFVEMVENGTLRVLAIYPDENREEWATKAVYMPQGWIVGWNKAGDIRTRQLYDIRATPTIYLLDGRKRVILKDTSMEQLIDYLATQAG = not soluble

###

- ASSAY_SUMMARY: soluble on expression in E. coli; label from the status in PepcDB or PDB records
QUANTITY_KIND: soluble on expression in E. coli

GSHMASTPDKFNDGNLNIAYAKPTTQSSVDYNGDPNRAVDGNRNGNFNSGSVTHTRADNPSWWEVDLKKMDKVGLVKIYNRTDAETQRLSNFDVILYDNNRNEVAKKHVNNLSGESVSLDFKEKGARYIKVKLLTSGVPLSLAEVEVFRES = soluble
SMRKFGVVVVGVGRAGSVRMRDLRNPHPSSAFLNLIGFVSRRELGSIDGVQQISLEDALSSQEVEVAYICSESSSHEDYIRQFLNAGKHVLVEYPMTLSLAAAQELWELAEQKGKVLHEEHVELLMEEFAFLKKEVVGKDLLKGSLLFTAGPLEEERFGFPAFSGISRLTWLVSLFGELSLVSATLEERKEDQYMKMTVCLETEKKSPLSWIEEKGPGLKRNRYLSFHFKSGSLENVPNVGVNKNIFLKDQNIFVQKLLGQFSEKELAAEKKRILHCLGLAEEIQKYCCSRK = soluble
MAHHHHHHMVSKTRKQRQKKKAGMQAHDGVLPPVVPSVPKSVHLKKTRPNMKGKMKIRLGLESPIDIYNGFEERKGVIWRCPTCAKACRVVGFCVDCASGVKSKSHAGQLSGRASTKKEAAQTRAPKLRIKEKSRVVKLRRKK = soluble

###

- ASSAY_SUMMARY: soluble on expression in E. coli; label from the status in PepcDB or PDB records
QUANTITY_KIND: soluble on expression in E. coli

MTGMTNVTKLASEPSGQEFLVFTLGDEEYGIDILKVQEIRGYDQVTRIANTPAFIKGVTNLRGVIVPIVDLRIKFSQVDVDYNDNTVVIVLNLGQRVVGIVVDGVSDVLSLTAEQIRPAPEFAVTLSTEYLTGLGALGDRMLILVNIEKLLNSEEMALLDSAASEVA = soluble
MGHHHHHHSHGLNSSRNLLIISQKSDQILNYITNGADRGATKIPVLGGHTGHSQNMIMTTLSTHEVPKVQEEIQKIDETAFIVIIPASTVMGRGFSLQKDYKSVPNDFINP = soluble

###

- ASSAY_SUMMARY: soluble on expression in E. coli; label from the status in PepcDB or PDB records
QUANTITY_KIND: soluble on expression in E. coli

MAMVIPARNQMASQFLELPKRTSSLMAPTMVLQGHGGEIYTSQFSSDGSFLASAGYDQQIFLWNVFGECENFAVLKGHKGAIMEVKFNADSSHLVSAGTDKTVRVWDMETGSCIRNFKSHTDIVNSVDVNRRGPQMICSASDDGTVMVHDMRSKEAAKKFICKYQQTAVTFNDAADNVICGGIDNQIKVWDMLRNDVRYVLSGHRDTITSLSVSHNGNFLLSNSMDCSLMSWDIRPFVPAQRLVARYQGASHNFEKNLLKCGWSPRDNYITAGSADRFVYVWNAKSRACVYKLPGHLGSVNCTALHPTQQILLSAGSDKTIFLGELDLEDY = not soluble
LPVTDNHIHVDDKHGYGAEKVAKTFYNAGGKVMIVLNKPTFDGNLTASMDILVRDVEIINKNTPVKAFGLVGVHPAELTYLMKFMSLEEAKQRIVDALNYAKKLVEEYDFIVGIGEVGRPHYPVSEDVWKASNEILKYCMELAKDIGCAIQIHAESSTEEQFKEFSEMAKEVGLNPEKVVKHHCGNMVLEGERYGIFPSILASRVNEDVVKKSLRFVMETDYIDDLKRPGVALGIKTVPRVTRRLIEKGVLDEEGVYKIHKENIERIYDM = not soluble
SSMIMYRKDLMEKAGLTMPDAPTWDFVKEAAQKMTDKDAEVYGICLRGKAGWGENMAFLTAMANSYGARWFDENWQPQFDGEAWKATLTDYLDMMTNYGPPGASNNGFNENLALFQQGKCGMWIDATVAASFVTNPEESTVADKVGFALAPDTGKGKRANWLWAWNLAIPAGSQKVDAAKQFIAWATSKDYAELVASKEGWANVPPGTRISLYENP = not soluble
